Biological target: CCK2 receptor (Homo sapiens, UniProt P32239)
Construct: Membranes were prepared from the HEKZFP cells after induction; endogenous in cells
Sequence (P32239 1-447): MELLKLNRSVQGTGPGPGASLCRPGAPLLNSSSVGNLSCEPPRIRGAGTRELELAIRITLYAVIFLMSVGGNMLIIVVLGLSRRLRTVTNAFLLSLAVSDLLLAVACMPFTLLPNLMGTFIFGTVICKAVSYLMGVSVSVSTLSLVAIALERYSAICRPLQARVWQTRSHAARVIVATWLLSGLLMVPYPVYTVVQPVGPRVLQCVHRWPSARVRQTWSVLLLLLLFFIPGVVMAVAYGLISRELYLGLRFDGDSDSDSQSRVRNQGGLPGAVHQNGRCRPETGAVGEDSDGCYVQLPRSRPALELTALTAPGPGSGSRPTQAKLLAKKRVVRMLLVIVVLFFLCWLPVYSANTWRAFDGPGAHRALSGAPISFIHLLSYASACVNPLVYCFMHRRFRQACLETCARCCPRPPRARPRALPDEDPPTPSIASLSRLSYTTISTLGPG
Assay: Binding Assay: competition with [125I]-BH-CCK-8S in HEKZFP cell membranes
Conditions: 60 min at 21±3° C., Cheng-Prusoff
Structures can show the parent of a compound that is named as a salt.
Quantity kind: Ki (nM)

As a guide, the following entries are already answered.
{"columns": ["Compound", "Study target", "Quantity kind", "Numeric value"],
 "data": [
  ["CN(Cc1ccc(F)cc1F)C(=O)c1ccc(Br)cc1NS(=O)(=O)c1cccc2nsnc12", "CCK2 receptor (Homo sapiens, UniProt P32239)", "Ki", 15.8],
  ["C[C@@H](NC(=O)c1ccc(Br)cc1NS(=O)(=O)c1cccc2nsnc12)c1ccc(F)cc1F", "CCK2 receptor (Homo sapiens, UniProt P32239)", "Ki", 25.1],
  ["CC(c1ccc(F)cc1)N(C)C(=O)c1ccc(Br)cc1NS(=O)(=O)c1cccc2nsnc12 (centres unmarked)", "CCK2 receptor (Homo sapiens, UniProt P32239)", "Ki", 5.01],
  ["CN(C(=O)c1ccc(Cl)cc1NS(=O)(=O)c1cccc2nsnc12)c1ccccc1", "CCK2 receptor (Homo sapiens, UniProt P32239)", "Ki", 126],
  ["O=C(c1ccc(-c2cccs2)cc1NS(=O)(=O)c1cccc2nsnc12)N1CCCCC1", "CCK2 receptor (Homo sapiens, UniProt P32239)", "Ki", 200]
]}

[P] O=C(c1cc2ccccc2cc1NS(=O)(=O)c1cccc2nsnc12)N1CCCCC1
[Q] Cc1ccc(C(=O)N[C@H](C)c2ccc(F)cc2F)c(NS(=O)(=O)c2cccc3nsnc23)c1
Input: Hi! Which is lower in terms of Ki, the first one P or the second one Q ? Please identify the chosen entry by its label.
Output: Q
(Q: 25.1 nM, P: 100 nM)

[1] CCCCNC(=O)c1ccc(Cl)cc1NS(=O)(=O)c1cccc2nsnc12
[2] CN(C)CC(c1ccccc1)N(C)C(=O)c1ccc(Cl)cc1NS(=O)(=O)c1cccc2nsnc12 (centres unmarked) [Example 48, TFA salt]
[3] C[C@H](c1ccccc1)N(C)C(=O)c1ccc(C(F)(F)F)cc1NS(=O)(=O)c1cccc2nsnc12
[4] O=C(c1ccc(I)cc1NS(=O)(=O)c1cccc2nsnc12)N1CCCCC1
[5] C[C@H](c1ccccc1)N(C)C(=O)c1cc(Cl)ccc1NS(=O)(=O)c1cccc2nsnc12
Input: Could you please order the items by Ki, going from the lowest number to the highest? Give me the labels in the order the question wants.
Output: 4, 3, 5, 2, 1

[a] CC(c1ccc(F)cc1)N(C)C(=O)c1ccc(I)cc1NS(=O)(=O)c1cccc2nsnc12 (centres unmarked)
[b] CON(C)C(=O)c1ccc(Br)cc1NS(=O)(=O)c1cccc2nsnc12
Input: Hi! Which is lower in terms of Ki, the first one a or the second one b ? Please identify the chosen entry by its label.
Output: a

###

target: CCK2 receptor (Homo sapiens); construct: Membranes were prepared from the HEKZFP cells after induction; endogenous in cells; assay: Binding Assay: competition with [125I]-BH-CCK-8S in HEKZFP cell membranes; conditions: 60 min at 21±3° C., Cheng-Prusoff
Quantity kind: pKi

{"columns": ["Compound", "Numeric value"],
 "data": [
  ["CC1CCCCN1C(=O)c1ccc(Cl)cc1NS(=O)(=O)c1cccc2nsnc12 (stereo not drawn)", 7.5],
  ["O=C(c1ccc(Cl)cc1NS(=O)(=O)c1cccc2nsnc12)N1CCSC1", 7.1],
  ["O=C(c1ccc(Br)cc1NS(=O)(=O)c1cccc2nsnc12)N1CCCCC1", 7.6],
  ["O=C(c1ccc([N+](=O)[O-])cc1NS(=O)(=O)c1cccc2nsnc12)N1CCCCC1", 6.8],
  ["O=C(c1cc(Cl)c(Cl)cc1NS(=O)(=O)c1cccc2nsnc12)N1CCCCC1", 7.8],
  ["O=C(c1ccc(I)cc1NS(=O)(=O)c1cccc2nsnc12)N1CCOCC1", 7.5]
]}
